# System: DU-145 prostate
# assay-summary: NCI tumour cell line growth inhibition, 48 h
assay-metric: TGI

Below are worked cases with known answers.
- test-smiles: "CCCCCCCCCCCC[C@@H](O)[C@H]1CC[C@H]([C@H](O)CC[C@H](O)[C@@H]2CC[C@@H](CCCCCCCC3=C[C@H](C)OC3=O)O2)O1"
  tested-system: "DU-145 prostate"
  result-value: "> 50 µM"
- test-smiles: "CC(=O)c1ccc(N=NN2CCCC2)cc1"
  tested-system: "DU-145 prostate"
  result-value: "> 100 µM"

Then there is this compound:
Quick one: TGI for Cc1cc(Br)c(NC(=O)c2c(-c3c(Cl)cccc3Cl)noc2C)c(Br)c1 ?
> 100 µM

###

The reader will find reported TGI values listed item by item below.
# System: NCI-H23 lung
# assay-summary: NCI tumour cell line growth inhibition, 48 h
Numbers only here, please. The scale is µM.

Below are worked cases with known answers.
- compound: "CCN(CC)CCNc1ccc([N+](=O)[O-])c2nc3ccc(OC)cc3c(NCCN(CC)CC)c12"
  tested-system: "NCI-H23 lung"
  assay-metric: "TGI"
  result-value: 4.38
- compound: "CCCCCC(=O)O[C@]1(C(C)=O)CCC2C3CCC4=CC(=O)CC[C@]4(C)C3CC[C@@]21C (stereo not given in full)"
  tested-system: "NCI-H23 lung"
  assay-metric: "TGI"
  result-value: 9.97
- compound: "S=C1Cc2c(-c3ccccc3)cc(-c3cccc(Cl)c3)nc2-c2ccccc2N1"
  tested-system: "NCI-H23 lung"
  assay-metric: "TGI"
  result-value: 21.2

Quick one: TGI for O=C(O)CCCc1ccc2c(c1)CC1(C2)Cc2cc3c(cc2C1)CCCC3 ?
49.2

What would you report for CCN1CCC(O)(c2ccc([N+](=O)[O-])cc2)C(C(=O)c2ccc([N+](=O)[O-])cc2)C1 (stereo not given) ?
36.4

What would you report for CC(=O)c1ccc(Nc2c3c(nc4ccccc24)CCCC3)cc1 ?
43.4

###

# Tested on: UO-31 renal
# assay-summary: NCI tumour cell line growth inhibition, 48 h
assay-metric: GI50

Below are worked cases with known answers.
- compound: "S=C1SCN(Cc2ccccc2)CN1Cc1ccco1"
  result-value: "4.56 µM"
- compound: "Nc1nc(=S)c2ncn(C3OC(COP(=O)(O)O)C(O)C3O)c2[nH]1 (centres undefined)"
  result-value: "1.98 µM"
- compound: "COCCN(CCOC)c1nc(-c2ccccc2)nc2ccccc12"
  result-value: "28.1 µM"
- compound: "Nc1nccc(-c2c(-c3ccc(F)cc3)nn3cc(C(F)(F)F)ccc23)n1"
  result-value: "> 25 µM"
- compound: "Cc1cnc(C(=O)NNc2nc3sc4c(c3c(=O)[nH]2)C(C)CCC4)cn1 (centres undefined)"
  result-value: "0.414 µM"
- compound: "CCCCS(=O)c1sc2nc(-c3cccs3)cc(-c3ccccc3)c2c1N (centres undefined)"
  result-value: "4.16 µM"
- compound: "COc1ccccc1CNCCN1C(=O)c2ccc3c4c(ccc(c24)C1=O)C(=O)N(CCNCc1ccccc1OC)C3=O"
  result-value: "0.841 µM"
- compound: "CN1CCN(c2c(F)cc(NC3=C(Cl)C(=O)c4ncccc4C3=O)cc2F)CC1"
  result-value: "1.52 µM"

Quick one: GI50 for O=C(c1cccs1)c1c(C(F)(F)F)n([O-])c2cc(Cl)c(Cl)cc2[n+]1=O ?
1.9 µM

###

# System: MOLT-4 leukemia
# assay-summary: NCI tumour cell line growth inhibition, 48 h
assay-metric: GI50

Quick one: GI50 for Nc1nccc(-c2c(-c3ccc(F)cc3)nn3cc(C(F)(F)F)ccc23)n1 ?
> 25 µM

What would you report for CCCCS(=O)c1sc2nc(-c3cccs3)cc(-c3ccccc3)c2c1N (stereo not given) ?
3.8 µM

What would you report for CCCCCCCCCCCCCCNC(=O)Nc1ccc(Cl)c(Cl)c1 ?
1.6 µM

What would you report for COCCOC1=C(Cl)C(=O)c2ccccc2C1=O ?
1.81 µM

What would you report for COc1ccccc1CNCCN1C(=O)c2ccc3c4c(ccc(c24)C1=O)C(=O)N(CCNCc1ccccc1OC)C3=O ?
0.252 µM

What would you report for O=C(Nc1ccc(OC(F)(F)Cl)cc1)c1cnc(N2CC[C@@H](O)C2)c(-c2ccn[nH]2)c1 ?
9.23 µM

What would you report for CC(=O)Oc1c(C(=O)[O-])cc(C(C)C)cc1C(C)C.CC(=O)Oc1c(C(=O)[O-])cc(C(C)C)cc1C(C)C.CC(=O)Oc1c(C(=O)[O-])cc(C(C)C)cc1C(C)C.CC(=O)Oc1c(C(=O)[O-])cc(C(C)C)cc1C(C)C.[Cu+2].[Cu+2] ?
74.9 µM

###

# System: NCI-H522 lung
# assay-summary: NCI tumour cell line growth inhibition, 48 h; in the data active means GI50 below about 0.43 µM; inactive means the rest
Form entry, call: pick from YES (active), NO (inactive)

See these solved cases before continuing.
- test-smiles: "Cc1cc(Br)c(NC(=O)c2c(-c3c(Cl)cccc3Cl)noc2C)c(Br)c1"
  label: "NO"
- test-smiles: "COc1ccccc1CNCCN1C(=O)c2ccc3c4c(ccc(c24)C1=O)C(=O)N(CCNCc1ccccc1OC)C3=O"
  label: "YES"
- test-smiles: "N#CC(C#N)=C/C=C(\\Sc1ccc(Cl)cc1)c1ccc(F)cc1"
  label: "NO"

Per the assay record, what outcome was assigned to OCCCCC#Cc1ccccc1C#Cc1cccc(C(F)(F)F)c1 ?
NO

###

# System: SR leukemia
# assay-summary: NCI tumour cell line growth inhibition, 48 h
Where a SMILES comes first, the peptide text is derived from it. [ ]: non-standard residue; d: D form. The star is where a group is joined. ξ: configuration not given here. ξF = NC(Cc1ccccc1)C(=O)O; Cbz = O=C(OCc1ccccc1)*
assay-metric: TGI

- compound: "CCOC(=O)c1cn(CC)c(=O)n2c1nc1ccccc12"
  TGI: "> 100 µM"

Missing value: TGI, SR leukemia, entry CCOC(=O)CNC(=O)C(Cc1ccccc1)NC(=O)OCc1ccccc1 (stereo not drawn) (Cbz-[ξF]-Gly-OEt) . Fill in?
> 100 µM

What would you report for CN(NC1=NCCO1)c1ccc2ccccc2c1 ?
> 100 µM

###

# System: DU-145 prostate
# assay-summary: NCI tumour cell line growth inhibition, 48 h
assay-metric: GI50

Below are worked cases with known answers.
- compound: "Nc1nccc(-c2c(-c3ccc(F)cc3)nn3cc(C(F)(F)F)ccc23)n1"
  GI50: "> 25 µM"
- compound: "Nc1nc(=S)c2ncn(C3OC(COP(=O)(O)O)C(O)C3O)c2[nH]1 (stereo not given)"
  GI50: "0.577 µM"

Quick one: GI50 for [O]=[V]([OH])([OH])[OH] ?
> 100 µM

What would you report for COc1ccccc1Oc1nccc(-c2c(-c3ccc(F)cc3)ncn2C2CCNCC2)n1 ?
> 25 µM

What would you report for ClCCOCCn1cnc2c(Cl)nc(Cl)nc21 ?
10.2 µM

###

# System: SR leukemia
# assay-summary: NCI tumour cell line growth inhibition, 48 h
The reader will find reported TGI values listed item by item below.

Quick one: TGI for CCOC(=O)C1S(=O)(=O)OCCOS1(=O)=O ?
> 100 µM

What would you report for Cc1nc2sc3cccc(Cl)c3n2c(=O)c1N=Nc1ccc(Cl)cc1 ?
> 100 µM

###

The reader will find reported TGI values listed item by item below.
# Tested on: 786-0 renal
# assay-summary: NCI tumour cell line growth inhibition, 48 h

Below are worked cases with known answers.
- molecule: "c1ccc(COC[C@H]2O[C@@H](c3ccccc3)C[C@@H](OCc3ccccc3)C2OCc2ccccc2)cc1 (some centres not stated)"
  tested-system: "786-0 renal"
  TGI: "> 10 µM"
- molecule: "CC1(C)O[C@@H]2[C@@H](COC(C)(C)O[C@H]2C2SCCCS2)O1"
  tested-system: "786-0 renal"
  TGI: "> 100 µM"
- molecule: "Fc1ccc(NC(c2ccc(F)cc2)C2CCN(CCCCc3ccccc3)CC2)cc1 (configuration not stated)"
  tested-system: "786-0 renal"
  TGI: "2.84 µM"
- molecule: "N#Cc1c(NC(=O)C(F)(F)F)sc2c3c(=O)c4ccccc4c(=O)c=3oc3ccccc3c12"
  tested-system: "786-0 renal"
  TGI: "72.2 µM"
- molecule: "O=C(O)CN(CCN(CC(=O)O)CC(=O)O)CC(=O)O.[Mn+2]"
  tested-system: "786-0 renal"
  TGI: "> 100 µM"

Missing value: TGI, 786-0 renal, entry CC(=O)Nc1ccc(C2CC(c3ccc([N+](=O)[O-])cc3)=Nc3ccccc3S2=O)cc1 (configuration not stated) . Fill in?
22.6 µM

What would you report for CCOC(=O)c1cn(CC)c(=O)n2c1nc1ccccc12 ?
> 100 µM

###

# Test system: RPMI-8226 leukemia
# assay-summary: NCI tumour cell line growth inhibition, 48 h
assay-metric: TGI

Below are worked cases with known answers.
- compound: "CC12OC(=O)C(C#N)C1(C)C1C(=O)CCCC12 (stereo unspecified)"
  TGI: "> 100 µM"
- compound: "CC(C)(CN1CCCCC1)C(=O)/C=C/c1ccc(Br)cc1"
  TGI: "> 27.1 µM"
- compound: "c1ccc(COC[C@H]2O[C@@H](c3ccccc3)C[C@@H](OCc3ccccc3)C2OCc2ccccc2)cc1 (stereo partly specified)"
  TGI: "> 10 µM"

Quick one: TGI for O=c1[nH]c(N/N=C\C(O)C(O)C(O)C(O)CO)nc2ccccc12 (stereo unspecified) ?
> 100 µM

What would you report for O=C(NCCc1ccccc1)C1C(=O)C(=O)N(CCc2ccccc2)C1=O (stereo unspecified) ?
> 100 µM

What would you report for NC(N)=NCCCC(NCc1c2ccccc2nc2ccccc12)C(=O)O (stereo unspecified) ?
> 53.3 µM

What would you report for C=CCNC(=O)C(C)C1CCC2(C)C=CC(=O)C(C)=C2C1O (stereo unspecified) ?
> 100 µM

What would you report for CCOC(=O)C1=C(NC)OCC1=O ?
> 100 µM

What would you report for COc1ccc(-c2c(C3=NCCCN3)nnn2-c2ccccc2)cc1 ?
> 100 µM

What would you report for [B]C(=O)NC(CC(C)C)C(=O)NCC(=O)NC1c2ccsc2C(=O)C1O (stereo unspecified) (tested in a mixture with another compound) ?
> 100 µM

What would you report for O=C1N[C@@H]2CCCC[C@@H]2C12CCCCC2 ?
> 100 µM
